Provenance of the data: PubChem BioAssay (NCI)

test system: 786-0 renal; experiment: NCI tumour cell line growth inhibition, 48 h
Attribute: TGI
Attribute measured: TGI (µM)

- Cn1c(I)c(C#C[Si](C)(C)C)c(=O)[nH]c1=O: 30.4
- Cn1cc2c3ccccc3nc-2c2ccccc21: 11.1
- Cc1ccc(-c2nc3sc(C)cn3c2/C=C2\C(=O)Nc3ccc(Cl)cc32)cc1: 22
- NC(=S)N1N=C2c3ccccc3CCC[C@H]2[C@@H]1c1ccccc1: 21.8
- COc1cccc2c1C(=O)c1c(O)c3c(c(O)c1C2=O)C[C@@](O)(C(=O)CO)CC3OC1CC(NCCOCC(OC(C)=O)OC(C)=O)C(O)C(C)O1 (stereo not given in full): 3.16
- CCCCCCCCN=C(NCCCCCCCC)SCc1cccc2ccccc12: 2.7

----------
tested on: HT29 colon; experiment: NCI tumour cell line growth inhibition, 48 h
Attribute: TGI
Attribute measured: TGI (µM)

- Cn1cc2c3ccccc3nc-2c2ccccc21: 5.35
- CC1=C[C@@H]2c3c(c(O)c(O)c4oc5cc(O)cc(O)c5c(=O)c34)[C@@H](c3cc(O)c(O)c4oc5cc(O)cc(O)c5c(=O)c34)[C@@H]2C(C)(C)C1: 14.8
- FC(F)(F)c1cccc(-c2[nH]ncc2-c2nnnn2-c2ccccc2)c1: 9.33
- COc1cnccc1Nc1nc(-c2nn(Cc3c(F)cc(OCCO)cc3F)c3ccccc23)ncc1OC: 16.4
- Cn1c(I)c(C#C[Si](C)(C)C)c(=O)[nH]c1=O: 5.64

----------
system: SK-MEL-2 melanoma; experiment: NCI tumour cell line growth inhibition, 48 h
Attribute: TGI
Attribute measured: TGI

- NS(=O)(=O)c1ccc(N=Nc2c[nH]c(=O)c(O)c2)cc1: > 100 µM
- CCC(c1ccccc1)c1cc(C(C)(C)C)cc(C(C)(C)C)c1O (stereo not given): 29 µM
- CCC(Nc1ncnc2nc[nH]c12)C(=O)O (stereo not given): > 100 µM
- CCCCOC(=O)NC(=O)c1cn(CCCOC(=O)CCCCCCCCC(=O)OCCCn2cc(C(=O)NC(=O)OCCCC)c(=O)n(C)c2=O)c(=O)n(C)c1=O: > 100 µM
- CCOC(=O)c1nc2cc(Cl)ccc2[nH]c1=O: > 100 µM

----------
test system: A549 NSCLC; assay: NCI tumour cell line growth inhibition, 48 h
Attribute: TGI
Attribute measured: TGI

* CC[C@]12C=CCN3CC[C@@]4(c5cc(Br)c(OC)cc5N(C)[C@H]4[C@@](O)(C(=O)NC(Cc4c[nH]c5ccccc45)C(=O)OC)[C@@H]1O)[C@@H]32 (some centres undefined) | > 100 µM
* CN(C)c1ccc2[nH]c3c(C(N)=O)cc(=O)c(=O)c=3oc2c1 | > 100 µM
* O=C(CCc1ccccc1)CC1OC(=O)C(Cl)=C1Cl (centres undefined) | > 100 µM
* CC1=C2C=CC(=O)C[C@@]2(C)CCC1 | > 100 µM
* Cc1ccc(NC(=O)C2C3CCC(O3)C2C(=O)O)cc1 (centres undefined) | > 100 µM
* CC12O[C@H](C[C@@H](OC(=O)CCC(=O)O)[C@H]1O)n1c3ccccc3c3c4c(c5c6ccccc6n2c5c31)C(=O)NC4=O | > 50 µM
* CC1OC(O[C@@H]2C=C3CC[C@@H]4[C@H](CC[C@]5(C)[C@@H](c6ccc(=O)oc6)CC[C@]45O)[C@@]3(C)CC2)C(O)C(OC2OC(CO)C(O)C(O)C2O)C1O (some centres undefined) | 0.000142 µM
* N#Cc1ccc(C2SCc3nc4ccccc4n32)cc1 (centres undefined) | > 100 µM
* O=C1CN(c2cccc(C(F)(F)F)c2)C(=O)CN1CCN1CC(=O)N(c2cccc(C(F)(F)F)c2)CC1=O | > 100 µM
